Target: hemagglutinin H1 on influenza virus A/Puerto Rico/8/34 strain (H1N1) (influenza virus A/Puerto Rico/8/34 (H1N1)) (UniProt P03452)
Assay: cell-based or functional assay
Outcome Measure: log10 of IC50(µM), plaque assay, infection of MDCK cells (log10 of the value in µM)

>  <Substance>
C18-s2(1-6) (C18-ARLPRT peptide amide)

>  <Number>
0.54

$$$$
>  <Substance>
C18-s2(1-7) (C18-ARLPRTM peptide amide)

>  <Number>
0.85

$$$$
>  <Substance>
C18-s2(2-8) (C18-RLPRTMV peptide amide)

>  <Number>
0.96

$$$$
>  <Substance>
C18-s2(r1-8) (C18-VMTRPLRA peptide amide)

>  <Number>
1.97

$$$$
>  <Substance>
C18-s2(5-11) (C18-RTMVHPK peptide amide)

>  <Number>
1.04

$$$$
>  <Substance>
C18-s2(8-15) (C18-VHPKPAQP peptide amide)

>  <Number>
1.77

$$$$
